Kindly supply the reported kon values for the records listed here.
assaySystem: SARS-CoV-2 RBD (WT) (SARS-CoV-2 Wuhan-Hu-1 (wildtype), UniProt P0DTC2)
testName: BLI
testParameters: both partners purified
Give the value, in units of M⁻¹ s⁻¹, as a plain number.

Query string: Look up kon for this binder: H5 (antibody, V domains shown, human IgG1) VH: QVQLVESGGGLVKPGGSLRLSCAASGFTFSDYYMSWIRQAPGKGLEWVSYISSSGSTIYYADSVKGRFTISRDNAKNSLYLQMNSLRAEDTAVYYCARAKWLRGHFDYWGQGTLVTVSS VL: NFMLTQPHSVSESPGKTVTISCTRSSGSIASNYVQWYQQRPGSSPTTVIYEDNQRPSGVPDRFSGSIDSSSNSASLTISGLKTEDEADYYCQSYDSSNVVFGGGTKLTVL
Result string: 129000

Query string: Look up kon for this binder: H14 (antibody, V domains shown, human IgG1) VH: QVQLQESGPGLVKPSQTLSLTCTVSGGSISSGGYYWSWIRQHPGKGLEWIGYIYYSGSTYYNPSLKSLVTISVDTSKNQFSLKLSSVTAADTAVYYCARKGWLRGAFDIWGQGTMVTVSS VL: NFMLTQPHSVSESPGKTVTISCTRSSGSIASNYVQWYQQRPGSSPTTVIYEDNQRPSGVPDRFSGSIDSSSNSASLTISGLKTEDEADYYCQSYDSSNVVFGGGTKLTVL
Result string: 536000

Query string: Look up kon for this binder: H16 (antibody, V domains shown, human IgG1) VH: QLQLQESGPGLVKPSETLSLTCTVSGGSISSSSYYWGWIRQPPGKGLEWIGSIYYSGSTYYNPSLKSRVTISVDTSKNQFSLKLSSVTAADTAVYYCARREWLRGPFDYWGQGTLVTVSS VL: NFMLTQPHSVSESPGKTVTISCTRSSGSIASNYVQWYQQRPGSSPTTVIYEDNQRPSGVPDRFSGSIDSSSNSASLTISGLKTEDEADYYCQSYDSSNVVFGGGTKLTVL
Result string: 509000

Query string: Look up kon for this binder: H4 (antibody, V domains shown) VH: EVQLVESGGGLVQPGGSLRLSCAASGFTFSSYWMSWVRQAPGKGLEWVANIKQDGSEKYYVDSVKGRFTISRDNAKNSLYLQMNSLRAEDTAVYYCASQLWLRGAFDIWGQGTMVTVSS VL: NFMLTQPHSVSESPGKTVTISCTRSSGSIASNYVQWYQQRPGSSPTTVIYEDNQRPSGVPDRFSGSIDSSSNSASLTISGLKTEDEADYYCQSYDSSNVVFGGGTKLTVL
Result string: 351000
